- target.or.system: enkephalinase Al (Rattus norvegicus, UniProt P07861)
- Construct: the solubilised enzymes contained in the supernatant separated by DEAE- cellulose column chromatography; Enkephalinase Al was further purified by Sephacryl S.300 chromatography; from tissue; host or cells: rat striatum (Triton X-100 solubilised membrane pellet, DEAE-cellulose and Sephacryl S.300 chromatography)
- Sequence (P07861 whole entry): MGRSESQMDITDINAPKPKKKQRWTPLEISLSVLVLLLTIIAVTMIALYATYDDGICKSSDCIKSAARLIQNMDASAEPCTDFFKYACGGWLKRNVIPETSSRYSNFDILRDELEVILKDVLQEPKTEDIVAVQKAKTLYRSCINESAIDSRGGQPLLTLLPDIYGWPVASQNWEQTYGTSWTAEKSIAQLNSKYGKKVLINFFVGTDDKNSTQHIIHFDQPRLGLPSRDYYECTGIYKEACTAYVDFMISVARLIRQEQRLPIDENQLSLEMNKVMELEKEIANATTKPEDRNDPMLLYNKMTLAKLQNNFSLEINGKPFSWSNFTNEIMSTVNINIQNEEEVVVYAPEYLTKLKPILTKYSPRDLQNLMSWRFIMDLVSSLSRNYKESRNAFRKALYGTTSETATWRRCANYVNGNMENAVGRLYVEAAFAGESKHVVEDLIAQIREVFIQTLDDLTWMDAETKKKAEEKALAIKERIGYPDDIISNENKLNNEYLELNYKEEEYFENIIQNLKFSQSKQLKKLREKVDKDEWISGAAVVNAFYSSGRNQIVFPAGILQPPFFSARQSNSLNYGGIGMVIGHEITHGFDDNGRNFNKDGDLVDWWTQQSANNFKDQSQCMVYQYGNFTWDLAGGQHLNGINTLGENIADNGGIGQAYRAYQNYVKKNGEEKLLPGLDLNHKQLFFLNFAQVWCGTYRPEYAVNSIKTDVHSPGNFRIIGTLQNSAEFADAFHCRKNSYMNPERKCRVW
- protocol.details: Enkephalinase-inhibiting activity, method A (purified enkephalinase A1, 3H-leucine enkephalin hydrolysis to 3H-TGG, TLC separation)
- Format: biochemical, Rats
- condition.label: leucine enkephalin 5 x 10^-5M, 30°C, IC50 determined graphically, read-out: Approx IC50
Recorded IC50 by entry
Please respond with the number in µM and leave the unit unwritten.

Incoming: Request: IC50, test system enkephalinase Al (Rattus norvegicus, UniProt P07861), entry CC(C)C[C@H](NC(=O)C(CC(=O)O)Cc1ccc([N+](=O)[O-])cc1)C(=O)O (some centres unmarked)
Outgoing: 65

Incoming: Repeat with CSCC[C@@H](NC(=O)C(CS)Cc1ccccc1)C(=O)O (some centres unmarked)
Outgoing: 0.15

Incoming: Repeat with C[C@H](CS)C(=O)N1CCC[C@H]1C(=O)O [Captopril, reference compound]
Outgoing: 3000

Incoming: Repeat with CSCC[C@H](NC(=O)C(CC(=O)O)Cc1ccccc1)C(=O)O (mixture of isomers)
Outgoing: 4.3

Incoming: Repeat with CSCC[C@@H](NC(=O)C(CC(=O)O)Cc1ccccc1)C(=O)O (mixture of isomers)
Outgoing: 19
